Answer each item with its documented % Activation.
# ASSAYED TARGET: CFTR G551D mutant (Homo sapiens, UniProt P13569, G551D)
# Construct: expressed in transfected cells; host or cells: HEK293 cells, reverse transfection with plasmids
# Sequence (P13569 whole entry G551D): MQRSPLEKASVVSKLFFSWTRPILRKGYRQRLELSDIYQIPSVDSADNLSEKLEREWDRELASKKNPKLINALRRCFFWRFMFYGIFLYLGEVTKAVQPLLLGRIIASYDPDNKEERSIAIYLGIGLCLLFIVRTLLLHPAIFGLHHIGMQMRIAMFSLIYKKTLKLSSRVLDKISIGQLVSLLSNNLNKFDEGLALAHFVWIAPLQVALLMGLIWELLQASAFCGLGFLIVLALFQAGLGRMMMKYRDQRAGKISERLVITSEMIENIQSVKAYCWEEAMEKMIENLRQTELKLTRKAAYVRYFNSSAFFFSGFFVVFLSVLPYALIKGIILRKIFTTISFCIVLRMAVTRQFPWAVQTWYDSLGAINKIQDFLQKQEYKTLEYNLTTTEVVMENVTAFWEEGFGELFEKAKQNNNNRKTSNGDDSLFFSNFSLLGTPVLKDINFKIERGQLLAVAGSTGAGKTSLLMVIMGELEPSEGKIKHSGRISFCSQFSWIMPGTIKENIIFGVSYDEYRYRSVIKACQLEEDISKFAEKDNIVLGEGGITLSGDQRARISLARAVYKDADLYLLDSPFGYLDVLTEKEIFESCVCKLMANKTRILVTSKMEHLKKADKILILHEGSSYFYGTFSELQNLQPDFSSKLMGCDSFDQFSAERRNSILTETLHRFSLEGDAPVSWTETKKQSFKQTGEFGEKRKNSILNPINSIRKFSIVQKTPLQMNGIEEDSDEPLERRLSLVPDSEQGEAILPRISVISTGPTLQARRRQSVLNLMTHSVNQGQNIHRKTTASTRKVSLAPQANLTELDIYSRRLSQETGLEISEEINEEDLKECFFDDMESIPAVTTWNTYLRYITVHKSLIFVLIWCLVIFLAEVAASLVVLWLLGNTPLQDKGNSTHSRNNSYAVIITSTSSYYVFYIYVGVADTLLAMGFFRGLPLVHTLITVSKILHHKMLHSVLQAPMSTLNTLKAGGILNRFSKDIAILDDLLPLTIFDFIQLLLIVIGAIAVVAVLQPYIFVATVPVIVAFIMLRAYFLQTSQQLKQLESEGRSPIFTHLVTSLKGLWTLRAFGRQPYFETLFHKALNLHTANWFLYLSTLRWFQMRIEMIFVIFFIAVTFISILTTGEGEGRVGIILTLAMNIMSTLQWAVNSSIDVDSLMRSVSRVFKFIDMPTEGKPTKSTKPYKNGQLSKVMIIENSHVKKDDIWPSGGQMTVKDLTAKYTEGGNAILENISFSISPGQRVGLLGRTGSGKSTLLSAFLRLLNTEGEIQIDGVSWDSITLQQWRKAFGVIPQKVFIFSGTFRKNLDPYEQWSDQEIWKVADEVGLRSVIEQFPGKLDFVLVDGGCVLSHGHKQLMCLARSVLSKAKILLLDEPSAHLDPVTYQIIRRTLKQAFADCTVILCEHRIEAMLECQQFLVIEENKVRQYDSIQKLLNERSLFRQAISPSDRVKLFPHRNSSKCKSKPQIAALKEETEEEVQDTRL
# METHOD DESCRIPTION: YFP-halide influx assay for the CFTR-G551D mutation (HEK293 cells)
# Assay type: cell-based
# CONDITION LABEL: forskolin 10.67 μM
# Procedure: The YFP halide influx assay measured the functionality of the cystic fibrosis Transmembrane Conductance regulator (CFTR) channels. The assay was used to evaluate the capacity of compounds to increase the channel opening of existing mutant CFTR channels in the membrane. […] The I^−-induced quenching of fluorescence was recorded immediately after injection of I^− for 7 seconds. […]

These solved cases illustrate the format of a correct answer.
Nc1cc(S(=O)(=O)c2ccc(OC(F)(F)F)cc2)cnc1C(=O)NCC1CCCO1 (centres unmarked) | 73.5%
Nc1cc(S(=O)(=O)c2ccc(OC(F)(F)F)cc2)cnc1C(=O)NC1CCOC1 (centres unmarked) | 61.2%
COCC(O)CNC(=O)c1ncc(S(=O)(=O)c2ccc(C(F)(F)F)cc2)cc1N (centres unmarked) | 76.5%
CN1CCC(O)(CNC(=O)c2ncc(S(=O)(=O)c3ccc(OC(F)(F)F)cc3)cc2N)CC1 | 1.7%

For each of the items listed, what is its % Activation?
1. COc1ccnc(CNC(=O)c2ncc(S(=O)(=O)N3CCC[C@@H]3C)cc2N)n1
2. Nc1cc(S(=O)(=O)c2ccc(OC(F)(F)F)cc2)cnc1C(=O)NC[C@@H](O)CO
3. Nc1cc(S(=O)(=O)c2ccc(C(F)(F)F)cc2F)cnc1C(=O)NC[C@@H]1CCOC1
4. CC(C)(CO)NC(=O)c1ncc(S(=O)(=O)c2ccc(C(F)(F)F)cc2)cc1N
5. CC(C)(C)CNC(=O)c1ncc(S(=O)(=O)c2ccc(C(F)(F)F)cc2)cc1N

["50.0%", "23.5%", "37.9%", "28.1%", "11.7%"]

Okay, here is my list. What is % Activation for each of these?
1. CC(C)CC(O)CNC(=O)c1ncc(S(=O)(=O)c2ccc(OC(F)(F)F)cc2)cc1N (centres unmarked)
2. Nc1cc(S(=O)(=O)c2ccc(C(F)(F)F)cc2)cnc1C(=O)NCCC(F)(F)F
3. COCC(O)CNC(=O)c1ncc(S(=O)(=O)N2CCC[C@@H]2C)cc1N (some centres unmarked)

1: 67.5%; 2: 33.0%; 3: 13.7%

Batch of 5 compounds: report % Activation for each.
1. CC1(C)CN(S(=O)(=O)c2cnc(C(=O)NCC(O)C(F)(F)F)c(N)c2)C1 (centres unmarked)
2. Nc1cc(S(=O)(=O)c2ccc(OC(F)(F)F)cc2F)cnc1C(=O)NC[C@H]1CCOC1
3. CC(C)(O)CNC(=O)c1ncc(S(=O)(=O)c2ccc(F)cc2)cc1N
4. Nc1cc(S(=O)(=O)c2ccc(OC(F)(F)F)cc2)cnc1C(=O)N1CCC1
5. Nc1cc(S(=O)(=O)c2ccc(C(F)(F)F)cc2)cnc1C(=O)NC[C@@H](O)COCC(F)(F)F

65.0%
40.6%
52.2%
67.8%
91.1%

----------
# ASSAYED TARGET: CFTR G551D mutant (Homo sapiens, UniProt P13569, G551D)
# Construct: expressed in transfected cells; host or cells: HEK293 cells, reverse transfection with plasmids
# METHOD DESCRIPTION: YFP-halide influx assay for the CFTR-G551D mutation (HEK293 cells)
# Assay type: cell-based
# CONDITION LABEL: forskolin 10.67 μM
MEASUREMENT TYPE: % Activation
Report field: quantity (unit follows the number).

Count: 7. Required value per item: % Activation.
1. CN(CCC(F)(F)F)S(=O)(=O)c1cnc(C(=O)NCC(O)C(F)(F)F)c(N)c1 (centres unmarked) [Compound 225]
2. Nc1cc(S(=O)(=O)c2ccccc2)cnc1C(=O)NC[C@@H](O)C(F)(F)F [Compound 253]
3. Nc1cc(S(=O)(=O)c2ccc(C(F)(F)F)cc2)cnc1C(=O)N1CC2(CCCOC2)C1 [Compound 295]
4. CC(C)(C)OCC(O)CNC(=O)c1ncc(S(=O)(=O)c2ccc(C(F)(F)F)cc2F)cc1N (centres unmarked) [Compound 224]
5. Nc1cc(S(=O)(=O)N2CCC(F)(F)CC2)cnc1C(=O)NCC(O)C(F)(F)F (centres unmarked) [Compound 84]
6. Nc1cc(S(=O)(=O)c2ccc(OC(F)(F)F)cc2)cnc1C(=O)NC1CCOCC1 [Compound 146]
7. Nc1cc(S(=O)(=O)c2ccc(C(F)(F)F)cc2)cnc1C(=O)NC[C@H](O)C(F)(F)F [Compound 64]

["44.2%", "51.2%", "92.7%", "80.6%", "64.4%", "58.4%", "72.5%"]

Recall the recorded % Activation for CN(Cc1ccc(C(F)(F)F)cc1)S(=O)(=O)c1cnc(C(=O)NCC(O)C(F)(F)F)c(N)c1 (centres unmarked) [Compound 211] with CFTR G551D mutant (Homo sapiens, UniProt P13569, G551D) and state it.
24.0%
